Hi there, I'd appreciate the recorded melting point for every entry that follows.

Give the value of melting point reported for the following: COc1ccccc1-c1cc(-c2ccco2)nc(N)c1C#N [Compound 21]
187 to 188 °C

Give the value of melting point reported for the following: N#Cc1c(-c2ccccc2)cc(-c2nccs2)nc1N [Compound 3]
154 to 156 °C

Give the value of melting point reported for the following: N#Cc1c(C2CCCCC2)cc(-c2ccccc2)nc1N [Compound 8]
125 to 126 °C

Give the value of melting point reported for the following: N#Cc1c(-c2ccccc2Cl)cc(-c2ccc(O)cc2)nc1N [Compound 23]
215 to 217 °C

Give the value of melting point reported for the following: N#Cc1c(C2CCCCC2)cc(-c2cccs2)nc1N [Compound 11]
160 to 162 °C

Give the value of melting point reported for the following: COc1ccccc1-c1cc(-c2ccccc2F)nc(N)c1C#N [Compound 19]
187 to 188 °C

Give the value of melting point reported for the following: N#Cc1c(-c2ccc3c(c2)OCO3)cc(-c2ccccc2)nc1N [Compound 7]
220 to 221 °C

Give the value of melting point reported for the following: COc1ccc(-c2cc(-c3ccco3)nc(N)c2C#N)cc1 [Compound 16]
205 to 207 °C

Give the value of melting point reported for the following: N#Cc1c(-c2ccccc2F)cc(-c2ccccc2F)nc1N [Compound 18]
180 to 181 °C

Give the value of melting point reported for the following: N#Cc1c(-c2ccc(O)cc2)cc(-c2ccc(O)cc2)nc1N [Compound 24]
299 to 300 °C
